Reference source for all entries: paper PMC8565778

- TARGET_UNDER_TEST: COX-2 (cyclooxygenase enzyme-2) (Homo sapiens)
- Construct: gene PTGS2
- Sequence (P35354 18-604): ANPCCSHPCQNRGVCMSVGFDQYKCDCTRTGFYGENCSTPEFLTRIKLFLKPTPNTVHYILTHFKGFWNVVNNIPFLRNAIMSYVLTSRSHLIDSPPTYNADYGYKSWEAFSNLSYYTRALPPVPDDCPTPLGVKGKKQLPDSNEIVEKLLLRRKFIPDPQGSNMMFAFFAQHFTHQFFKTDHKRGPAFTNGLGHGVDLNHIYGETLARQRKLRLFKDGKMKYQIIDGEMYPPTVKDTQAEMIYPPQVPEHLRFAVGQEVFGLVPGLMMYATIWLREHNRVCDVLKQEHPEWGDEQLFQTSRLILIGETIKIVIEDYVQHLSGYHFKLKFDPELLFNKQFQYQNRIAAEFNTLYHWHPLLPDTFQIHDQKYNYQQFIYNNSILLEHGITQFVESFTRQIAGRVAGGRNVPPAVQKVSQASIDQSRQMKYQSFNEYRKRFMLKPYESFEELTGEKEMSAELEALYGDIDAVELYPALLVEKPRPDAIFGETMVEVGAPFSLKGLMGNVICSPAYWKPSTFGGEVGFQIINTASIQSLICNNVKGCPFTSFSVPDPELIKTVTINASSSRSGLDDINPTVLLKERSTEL
- EXPERIMENT: biochemical
- Design: In vitro cyclooxygenase (COX-1 and COX-2) enzyme inhibition assay, percent inhibition
- MEASUREMENT_CONTEXT: read-out: % inhibition
# cutoff 10% applies to inhibition at 25 µg/mL; >= gives T, < gives F

Reference set, count: 10
O=C(O)[C@@H]1CCCN1 : F
N[C@@H](CS)C(=O)O : F
N=C(N)NCCC[C@H](N)C(=O)O : T
CC(C)C(=O)C(=O)O : T
NC(=O)C[C@H](N)C(=O)O : T
O=C(O)C(O)Cc1ccccc1 (stereo not drawn) : T
CCCCCCCC/C=C\CCCCCCCC(=O)O[C@H]1CC[C@@]2(C)C(=CC[C@H]3[C@@H]4CC[C@H]([C@H](C)CCCC(C)C)[C@@]4(C)CC[C@@H]32)C1 [Cholesteryl oleate^#] : T
CCCCC/C=C\C/C=C\C/C=C\C/C=C\CCCC(=O)O[C@H]1CC[C@@]2(C)C(=CC[C@H]3[C@@H]4CC[C@H]([C@H](C)CCCC(C)C)[C@@]4(C)CC[C@@H]32)C1 [compound 11, Cholesteryl arachidonate] : T
O=c1[nH]c(=O)c2nc[nH]c2[nH]1 : F
CC/C=C\C/C=C\C/C=C\C/C=C\C/C=C\CCCC(=O)O[C@H]1CC[C@@]2(C)C(=CC[C@H]3[C@@H]4CC[C@H]([C@H](C)CCCC(C)C)[C@@]4(C)CC[C@@H]32)C1 [compound 10, Cholesteryl eicosapentaenoate] : T

Request: Item "CC(C)[C@H](N)C(=O)O" with inhibition at 25 µg/mL of 10% or above?
Result: F

Request: Likewise for "N[C@@H](CCC(=O)O)C(=O)O" ?
Result: T

Request: Likewise for "Nc1ncnc2c1ncn2[C@@H]1O[C@H](CO)[C@@H](O)[C@H]1O" ?
Result: T

Request: Likewise for "NCC(=O)O" ?
Result: F

Request: Likewise for CC(O)CC(=O)O (stereo not drawn) [β-Hydroxybutyric acid] ?
Result: T

Request: Likewise for "CCC(=O)C(=O)O" ?
Result: F
